Here, each record is paired with measured MIC data.
Tested on: Pseudomonas aeruginosa
protocolNotes: prevention of microbial growth in cutting oil emulsions (Kutwell 30)
Type: cell-based
assayContext: 672 h, incubation period 4 weeks, 3.3% cutting oil emulsion (Kutwell 30), 28° C., reinoculated weekly, read-out: concentration required to prevent microbial growth
Numbers only here, please. The scale is µg/mL.

Answered cases to consult:
         givensmiles  measuredvalue
0      COc1ccs[n+]1C             64
1  COc1c(Br)cs[n+]1C             32

Proceed to the following item.
Given item `C=CCOc1ccs[n+]1C` , the value recorded as its MIC is 32

Reference source: patent US4262127A
